Target: Cbl-b (truncated variant, UniProt number Q13191) (Homo sapiens, UniProt Q13191)
Construct: made in house
Sequence (Q13191 36-427): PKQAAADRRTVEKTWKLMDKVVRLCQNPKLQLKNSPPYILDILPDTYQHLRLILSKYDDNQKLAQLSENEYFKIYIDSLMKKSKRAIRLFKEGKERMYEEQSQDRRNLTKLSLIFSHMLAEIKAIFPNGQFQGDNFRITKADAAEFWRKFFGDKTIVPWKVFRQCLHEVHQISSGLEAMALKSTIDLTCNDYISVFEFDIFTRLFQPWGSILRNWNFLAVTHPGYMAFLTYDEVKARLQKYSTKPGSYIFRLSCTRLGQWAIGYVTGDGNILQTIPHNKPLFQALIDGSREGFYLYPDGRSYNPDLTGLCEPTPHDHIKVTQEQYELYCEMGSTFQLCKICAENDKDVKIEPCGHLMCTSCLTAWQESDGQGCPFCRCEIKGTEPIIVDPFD
Assay: Cbl-b activity assay (TR-FRET, interaction of Cbl-b with UbcH5B-Ub)
Assay type: biochemical
Settings: high conditions: 100 mM NaCl, 60 nM Src kinase; 12 nM Cbl-b; read-out: Cbl-b activity IC50
Description: As described in Biological Example 1A, a Cbl-b activity assay (Cbl-b inhibition assay) used to measure the IC50 values for Cbl-b inhibition uses a mixture comprising candidate compound, Cbl-b (truncated, with an Avitag, and biotinylated), a fluorescently-labeled E2 enzyme UbcH5B labelled with ubiquitin conjugated to BODIPY-fluorescein (UbcH5B-Ub), streptavidin-terbium, and assay buffer. […] Inhibition of fluorescence energy transfer indicates Cbl-b activity. […]
readoutLabel: IC50

// IC50 (Cbl-b (truncated variant, UniProt number Q13191) (Homo sapiens, UniProt Q13191)) for C[C@H](Sc1nncn1C)c1cccc(NC(=O)N2CCS(=O)(=O)CC2)c1 [Example 165] = ≥ 5 µM

// IC50 (Cbl-b (truncated variant, UniProt number Q13191) (Homo sapiens, UniProt Q13191)) for CC1CN(C(=O)Nc2cccc([C@H](C)Sc3nncn3C)c2)CC(C)O1 (some centres unmarked) [Example 42] = ≥ 5 µM

// IC50 (Cbl-b (truncated variant, UniProt number Q13191) (Homo sapiens, UniProt Q13191)) for C[C@H](Sc1nncn1C)c1cccc(NC(=O)N(C)C2CCC2)c1 [Example 49] = ≥ 5 µM

// IC50 (Cbl-b (truncated variant, UniProt number Q13191) (Homo sapiens, UniProt Q13191)) for CNC(=O)c1ccc(-c2cc(-c3cccc([C@H](C)Sc4nncn4C)c3)on2)cc1 [Example 65] = 1 to 5 µM

// IC50 (Cbl-b (truncated variant, UniProt number Q13191) (Homo sapiens, UniProt Q13191)) for C[C@H](Sc1nncn1C)c1cccc(NC(=O)N2CCOC(c3ncon3)C2)c1 (some centres unmarked) [Example 154] = ≥ 5 µM

// IC50 (Cbl-b (truncated variant, UniProt number Q13191) (Homo sapiens, UniProt Q13191)) for C[C@H](Sc1nncn1C)c1cccc(-n2ncc(-c3cccc(Cl)c3)n2)c1 [Example 78] = 1 to 5 µM

// IC50 (Cbl-b (truncated variant, UniProt number Q13191) (Homo sapiens, UniProt Q13191)) for C[C@H](Sc1nncn1C)c1cccc(NC(=O)N2CCc3ccccc32)c1 [Example 7] = ≥ 5 µM

// IC50 (Cbl-b (truncated variant, UniProt number Q13191) (Homo sapiens, UniProt Q13191)) for Cn1cnnc1CC1(c2cccc(N3CC4C(C(F)(F)F)CCN4C3=O)c2)COC1 (centres unmarked) [Example 32] = 1 to 5 µM

// IC50 (Cbl-b (truncated variant, UniProt number Q13191) (Homo sapiens, UniProt Q13191)) for CNC(=O)C1(C)CCN(C(=O)Nc2cccc([C@H](C)Cc3nncn3C)c2)C1 (some centres unmarked) [Example 12] = ≥ 5 µM

// IC50 (Cbl-b (truncated variant, UniProt number Q13191) (Homo sapiens, UniProt Q13191)) for CNC(=O)c1cccc(-c2cnn(-c3cccc([C@H](C)Sc4nncn4C)c3)n2)c1 [Example 93] = 1 to 5 µM

// IC50 (Cbl-b (truncated variant, UniProt number Q13191) (Homo sapiens, UniProt Q13191)) for Cc1ccc2[nH]nc(-c3cccc([C@H](C)Cc4nncn4C)c3)c2n1 [Example 119] = 1 to 5 µM

// IC50 (Cbl-b (truncated variant, UniProt number Q13191) (Homo sapiens, UniProt Q13191)) for C[C@H](Sc1nncn1C)c1cccc(NC(=O)N2CCC3(CNC(=O)C3)C2)c1 (some centres unmarked) [Example 139] = ≥ 5 µM

// IC50 (Cbl-b (truncated variant, UniProt number Q13191) (Homo sapiens, UniProt Q13191)) for C[C@H](Sc1nncn1C)c1cccc(NC(=O)NC2CCCN(c3cccnn3)C2)c1 (some centres unmarked) [Example 129] = ≥ 5 µM

// IC50 (Cbl-b (truncated variant, UniProt number Q13191) (Homo sapiens, UniProt Q13191)) for C[C@H](Sc1nncn1C)c1cccc(C(=O)Nc2cc(C(F)(F)F)ccn2)c1 [Example 36] = 1 to 5 µM

// IC50 (Cbl-b (truncated variant, UniProt number Q13191) (Homo sapiens, UniProt Q13191)) for CC(=O)N1CCC2(CCN(C(=O)Nc3cccc([C@H](C)Sc4nncn4C)c3)CC2)C1 [Example 160] = ≥ 5 µM

// IC50 (Cbl-b (truncated variant, UniProt number Q13191) (Homo sapiens, UniProt Q13191)) for C[C@H](Sc1nncn1C)c1cccc(NC(=O)Nc2cccc(C(F)(F)F)n2)c1 [Example 3] = 0.1 to 1 µM

// IC50 (Cbl-b (truncated variant, UniProt number Q13191) (Homo sapiens, UniProt Q13191)) for Cn1cnnc1CC1(c2cccc(NC(=O)N3CC4(CNC4)Oc4cccnc43)c2)COC1 [Example 27] = < 0.1 µM
